- Tested on: Mouse splenocytes
- assay_method_text: Mouse Splenocyte Assay, cytokine release (HTRF)
- Type: cell-based
- assay_setup: Splenocyte, 24 hours, mIL6 in supernatant, read-out: Splenocyte IL6 EC50
measured_parameter: EC50 (nM)
A number alone suffices; assume nM.

**Query** What measured EC50 goes with CCCN(CCC)Cc1ccc(Cn2c(O)nc3c(N)nc(OCC)nc32)c(OC)c1 [Compound 125] ?
**Result** 171

**Query** Can you handle CCCCOc1nc(N)c2nc(O)n(Cc3ccc(CCCN4CCNCC4)cc3OC)c2n1 [Compound 173] next?
**Result** 5

**Query** Can you handle CCOc1nc(N)c2nc(O)n(Cc3ccc(CN4CCC5(CCNCC5)CC4)cc3OC)c2n1 [Compound 139] next?
**Result** 170

**Query** Can you handle CCOc1nc(N)c2nc(O)n(Cc3ccc(CN(CC(=O)O)CC(=O)O)cc3OC)c2n1 [Compound 120] next?
**Result** 881

**Query** Can you handle CCCCOc1nc(N)c2nc(O)n(Cc3ccc(CNC(CO)[C@@H](C)CC)cc3OC)c2n1 (stereo in doubt) [Compound 161] next?
**Result** 0.3

**Query** Can you handle CCCCOc1nc(N)c2nc(O)n(Cc3ccc(CN4CCNCC4)cc3)c2n1 [Compound 166] next?
**Result** 150
